biological target: Vasopressin V1 receptor (Rattus norvegicus, UniProt P48974+P30560); assay: Inhibition of radioligand [3H]AVP binding to the vasopressin V1 receptor in rat liver tissue
Listing: IC50 of selected compounds
Return type: number; implicit unit nM.

# lookup: IC50 of `CC1(C)[C@@H]2CC[C@@]1(CS(=O)(=O)N1CCC3(CCc4ccccc43)CC1)[C@@H](NC(=O)Cc1c[nH]cn1)C2`
5600

# lookup: IC50 of CC1(C)[C@@H]2CC[C@@]1(CS(=O)(=O)N1CCC3(CCc4ccccc43)CC1)[C@@H](N1C(=O)NC(CCS(C)(=O)=O)C1=O)C2 (some centres undefined)
110

# lookup: IC50 of `CC1(C)[C@@H]2CC[C@@]1(CS(=O)(=O)N1CCC3(CCc4ccccc43)CC1)[C@@H](N1C(=O)CN(Cc3c[nH]cn3)C1=O)C2`
370

# lookup: IC50 of `Cn1cncc1CC(=O)N[C@H]1C[C@H]2CC[C@]1(CS(=O)(=O)N1CCC3(CCc4ccccc43)CC1)C2(C)C`
2900
